TARGET_ENTITY: T1, Z-Phe-Arg-MCA
T1 chain: FR
OBSERVED_PROPERTY: Km (mM)

Medaka EP-1 serine protease domain mutant P193E (protein) VVGGVNAEKGAWPWMVSLHWRGRHGCGASLIGRDWLLTAAHCVYGKNTHLQYWSAVLGLHAQSSMNSQEVQIRQVDRIIINKNYNRRTKEADIAMMHLQQPVNFTEWVLPVCLASEDQHFPAGRRCFIAGWGRDAEGGSLPDILQEAEVPLVDQDECQRLLPEYTFTSSMLCAGYEEGGVDSCQGDSGGPLMCLEDARWTLIGVTSFGVGCGRPERPGAYARVSAFTSWIAETRRSSFSDLD = 0.2
Medaka EP-1 serine protease domain mutant T105E (protein) VVGGVNAEKGAWPWMVSLHWRGRHGCGASLIGRDWLLTAAHCVYGKNTHLQYWSAVLGLHAQSSMNSQEVQIRQVDRIIINKNYNRREKEADIAMMHLQQPVNFTEWVLPVCLASEDQHFPAGRRCFIAGWGRDAEGGSLPDILQEAEVPLVDQDECQRLLPEYTFTSSMLCAGYPEGGVDSCQGDSGGPLMCLEDARWTLIGVTSFGVGCGRPERPGAYARVSAFTSWIAETRRSSFSDLD = 0.1
Bovine EP serine protease (Novagen) (protein) IVGGSDSREGAWPWVVALYFDDQQVCGASLVSRDWLVSAAHCVYGRNMEPSKWKAVLGLHMASNLTSPQIETRLIDQIVINPHYNKRRKNNDIAMMHLEMKVNYTDYIQPICLPEENQVFPPGRICSIAGWGALIYQGSTADVLQEADVPLLSNEKCQQQMPEYNITENMVCAGYEAGGVDSCQGDSGGPLMCQENNRWLLAGVTSFGYQCALPNRPGVYARVPRFTEWIQSFLH = 0.5
Medaka EP-1 serine protease domain (wild-type) (protein) VVGGVNAEKGAWPWMVSLHWRGRHGCGASLIGRDWLLTAAHCVYGKNTHLQYWSAVLGLHAQSSMNSQEVQIRQVDRIIINKNYNRRTKEADIAMMHLQQPVNFTEWVLPVCLASEDQHFPAGRRCFIAGWGRDAEGGSLPDILQEAEVPLVDQDECQRLLPEYTFTSSMLCAGYPEGGVDSCQGDSGGPLMCLEDARWTLIGVTSFGVGCGRPERPGAYARVSAFTSWIAETRRSSFSDLD = 0.1
Medaka EP-1 serine protease domain mutant E173A (protein) VVGGVNAEKGAWPWMVSLHWRGRHGCGASLIGRDWLLTAAHCVYGKNTHLQYWSAVLGLHAQSSMNSQEVQIRQVDRIIINKNYNRRTKEADIAMMHLQQPVNFTEWVLPVCLASEDQHFPAGRRCFIAGWGRDAEGGSLPDILQEAEVPLVDQDACQRLLPEYTFTSSMLCAGYPEGGVDSCQGDSGGPLMCLEDARWTLIGVTSFGVGCGRPERPGAYARVSAFTSWIAETRRSSFSDLD = 0.4

Cited source: patent US20080213836
